From: patent US10660939

- system: T1, human melanocortin receptor-4 (human, UniProt P32245 1-332)
- T1 construct: whole, on cells; cAMP assays on whole cells; also called hMC4r; MC4r
- T1 sequence (P32245 whole entry): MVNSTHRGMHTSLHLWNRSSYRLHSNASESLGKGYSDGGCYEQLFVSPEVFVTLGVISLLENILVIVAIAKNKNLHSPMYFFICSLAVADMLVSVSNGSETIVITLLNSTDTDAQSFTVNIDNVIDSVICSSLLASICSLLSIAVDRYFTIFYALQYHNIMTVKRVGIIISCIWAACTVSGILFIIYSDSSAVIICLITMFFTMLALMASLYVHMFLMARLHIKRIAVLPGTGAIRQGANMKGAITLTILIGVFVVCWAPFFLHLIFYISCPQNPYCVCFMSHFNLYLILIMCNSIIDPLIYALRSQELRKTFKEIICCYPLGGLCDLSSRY
- protocol: competition with [I125]-NDP-α-MSH, hMC4r HEK-293 membranes
Positions of bridges follow the written chain, without caps; N, C: chain ends. Non-standard residues stand in square brackets, D forms with d. Orn = NCCC[C@H](N)C(=O)O; Dab = NCC[C@H](N)C(=O)O
observationType: Ki

So what does the record say about Ki for Ac-RE[Dab][dF]RW[Orn]-NH2 (lactam 2-7, also called Ac-Arg-cyclo(Glu-Dab-D-Phe-Arg-Trp-Orn)-NH2) [Peptide No. 165] ?
0.65 nM
